Tgt: Ba/F3-Syk cells (Homo sapiens)
Construct: fused on or other part: Possible but unprinted fusion partner: TEL (ETV6), the usual partner for Ba/F3 lines transformed by Syk; Nothing on a partner is printed
Assay Comment: Ba/F3 Proliferation Assay, Ba/F3-Syk cells (Resazurin)
Conditions: 48-hour incubation
Parameter: EC50

[[record]]
compound = "CC(C)(C)n1cc(-c2cc3ncccc3c(OC[C@@H]3CN[C@H]4CCC[C@H]4O3)n2)cn1 (stereo in doubt) [Compound 2.94]"
tgt = "Ba/F3-Syk cells (Homo sapiens)"
parameter = "EC50"
reported_value = "145 nM"

[[record]]
compound = "CC[C@@H]1CNC[C@@H](COc2nc(-c3cnn(C(C)(C)C)c3)cc3ncccc23)O1 [Compound 2.93]"
tgt = "Ba/F3-Syk cells (Homo sapiens)"
parameter = "EC50"
reported_value = "27.7 nM"

[[record]]
compound = "C[C@@H]1O[C@@H](COc2nc(-c3cnn(C(C)(C)C)c3)cc3ncccc23)CN[C@@H]1C (racemic) [Compound 2.80]"
tgt = "Ba/F3-Syk cells (Homo sapiens)"
parameter = "EC50"
reported_value = "36 nM"

[[record]]
compound = "CC(C)n1ccc(-c2cc(OC[C@@H]3CNCCCO3)c3nccnc3c2)c1 [Compound 8.10]"
tgt = "Ba/F3-Syk cells (Homo sapiens)"
parameter = "EC50"
reported_value = "10.7 nM"

[[record]]
compound = "CCn1ccc(-c2cc(O[C@H](C)[C@@H]3CNCCO3)c3nccnc3c2)c1 [Compound 8.14]"
tgt = "Ba/F3-Syk cells (Homo sapiens)"
parameter = "EC50"
reported_value = "8.3 nM"

[[record]]
compound = "CC(C)[C@@H]1CNC[C@@H](COc2nc(-c3cnn(C(C)(C)C)c3)cc3ncccc23)O1 [Compound 2.98]"
tgt = "Ba/F3-Syk cells (Homo sapiens)"
parameter = "EC50"
reported_value = "18.6 nM"

[[record]]
compound = "CC(C)n1cc(-c2cc(OC[C@@H]3CNCCO3)c3cccnc3c2)cn1 [Compound 3.4]"
tgt = "Ba/F3-Syk cells (Homo sapiens)"
parameter = "EC50"
reported_value = "47.4 nM"

[[record]]
compound = "c1cnc2cc(-c3cc[nH]c3)cc(OC[C@@H]3CNCCO3)c2c1 [Compound 3.9]"
tgt = "Ba/F3-Syk cells (Homo sapiens)"
parameter = "EC50"
reported_value = "167 nM"

[[record]]
compound = "CC1(C)CCO[C@H](COc2nc(-c3cnn(C(C)(C)C)c3)cc3ncccc23)CN1 [Compound 13.4]"
tgt = "Ba/F3-Syk cells (Homo sapiens)"
parameter = "EC50"
reported_value = "214 nM"

[[record]]
compound = "CC(C)n1cc(-c2cc3ncccc3c(O[C@H](C)[C@@H]3CNCCO3)n2)cn1 [Compound 2.66]"
tgt = "Ba/F3-Syk cells (Homo sapiens)"
parameter = "EC50"
reported_value = "14.5 nM"


###

Tgt: Ba/F3-Syk cells (Homo sapiens)
Construct: fused on or other part: Possible but unprinted fusion partner: TEL (ETV6), the usual partner for Ba/F3 lines transformed by Syk; Nothing on a partner is printed
Assay Comment: Ba/F3 Proliferation Assay, Ba/F3-Syk cells (Resazurin)
Conditions: 48-hour incubation
Parameter: EC50 (nM)

[[record]]
compound = "FC1(F)CC1n1ccc(-c2cc(OC[C@@H]3CNCCO3)c3cccnc3c2)c1 (stereo partly shown) [Compound 7.7]"
reported_value = 86.5

[[record]]
compound = "Cn1cc(-c2cc3ncccc3c(OCC3CNCCO3)n2)cn1 (stereo not shown) [Compound 2.1]"
reported_value = 92.8

[[record]]
compound = "O=C1CCn2cc(-c3cc(OC[C@@H]4CNCCO4)c4cccnc4c3)cc21 [Compound 3]"
reported_value = 162

[[record]]
compound = "c1cnc2cc(-c3cc4n(c3)CCC4)cc(OC[C@@H]3CNCCO3)c2c1 [Compound 4]"
reported_value = 87.7

[[record]]
compound = "Cc1noc(C)c1-c1cc2ncccc2c(OC[C@@H]2CNCCO2)n1 [Compound 2.14]"
reported_value = 3620

[[record]]
compound = "CC(C)(C)n1cc(-c2cc3ncccc3c(OC[C@H]3OC[C@@H]4C[C@H]3N4)n2)cn1 (relative stereo) [Compound 2.106]"
reported_value = 55.5

[[record]]
compound = "C=Cc1cnc2cc(-c3cnn(C(C)(C)C)c3)nc(OC[C@@H]3CNCC(C)(C)O3)c2c1 (stereo in doubt) [Compound 14.8]"
reported_value = 1170

[[record]]
compound = "CC(F)(F)Cn1cc(-c2cc3ncccc3c(OC[C@@H]3CNCC(C)(C)O3)n2)cn1 [Compound 6.39]"
reported_value = 21.4

[[record]]
compound = "CC[C@@]1(COc2nc(-c3cnn(C(C)C)c3)cc3ncccc23)CNCCO1 [Compound 10.16]"
reported_value = 259

[[record]]
compound = "FC(F)c1csc(-c2cc(OC[C@@H]3CNCCO3)c3cccnc3c2)c1 [Compound 14.4]"
reported_value = 196

[[record]]
compound = "CC(C)(C)n1cc(-c2cc3ncccc3c(OC[C@@H]3CNC[C@@H](C4CC4)O3)n2)cn1 [Compound 2.103]"
reported_value = 32.7

[[record]]
compound = "CC1(C)CNC[C@@H](COc2nc(-c3ccn(C4CC4(F)F)c3)cc3ncccc23)O1 (stereo partly shown) [Compound 6.18]"
reported_value = 36.2

[[record]]
compound = "CCn1ccc(-c2cc(OC[C@@H]3CNCC(C)(C)O3)c3nccnc3c2)c1 [Compound 8.21]"
reported_value = 10

[[record]]
compound = "COCCn1ccc(-c2cc(OC[C@@H]3CNCC(C)(C)O3)c3c(C)ccnc3c2)c1 [Compound 14.11]"
reported_value = 6.1

[[record]]
compound = "C[C@H](Oc1cc(-c2cnn(C(C)(C)C)c2)cc2ncccc12)[C@@H]1CNCCO1 [Compound 14.1]"
reported_value = 1340

[[record]]
compound = "CC(C)(C)n1cc(-c2cc(OC[C@@H]3CNCC4(CCC4)O3)c3cccnc3c2)cn1 [Compound 11.9]"
reported_value = 10


###

Tgt: Ba/F3-Syk cells (Homo sapiens)
Construct: fused on or other part: Possible but unprinted fusion partner: TEL (ETV6), the usual partner for Ba/F3 lines transformed by Syk; Nothing on a partner is printed
Assay Comment: Ba/F3 Proliferation Assay, Ba/F3-Syk cells (Resazurin)
Conditions: 48-hour incubation
pEC50: −log10 of the molar value.
Parameter: pEC50

[[record]]
compound = "Cn1cc(-c2cc3ncccc3c(OCC3CNCCCO3)n2)cn1 (centres unmarked)"
reported_value = 6.90

[[record]]
compound = "CC(C)[C@H]1CNC[C@@H](COc2nc(-c3cnn(C(C)(C)C)c3)cc3ncccc23)O1"
reported_value = 7.48

[[record]]
compound = "CC1(C)CNC[C@@H](COc2nc(-c3cnn(C(C)(C)C)c3)cc3ncccc23)OC1"
reported_value = 7.09

[[record]]
compound = "CC1(C)CNC[C@@H](COc2nc(-c3cnn(C(C)(C)C)c3)cc3nccc(C(F)(F)F)c23)O1"
reported_value = 7.70

[[record]]
compound = "CC(C)(C)n1ccc(-c2cc3ncccc3c(OC[C@@H]3CNCCO3)n2)c1"
reported_value = 7.60


###

Let's look at some molecules and their measured log10 of EC50.
Tgt: Ba/F3-Syk cells (Homo sapiens, UniProt P43405)
Construct: fused on or other part: Possible but unprinted fusion partner: TEL (ETV6), the usual partner for Ba/F3 lines transformed by Syk; Nothing on a partner is printed
Assay Comment: Ba/F3 Proliferation Assay, Ba/F3-Syk cells (Resazurin)
Conditions: 48-hour incubation
Parameter: log10 of EC50 (log10 of the value in nM)

[[record]]
molecule = "Cc1ccnc2cc(-c3cnn(C(C)(C)C)c3)cc(OC[C@@H]3CNCC(C)(C)O3)c12 [Compound 14.9]"
tgt = "Ba/F3-Syk cells (Homo sapiens, UniProt P43405)"
reported_value = 0.77

[[record]]
molecule = "Cn1ccc(-c2cc3ncccc3c(O[C@@H]([C@@H]3CNCCO3)C(F)(F)F)n2)c1 [Compound 13.3]"
tgt = "Ba/F3-Syk cells (Homo sapiens, UniProt P43405)"
reported_value = 3.08

[[record]]
molecule = "C[C@@H]1CNC[C@@H](COc2nc(-c3cnn(C)c3)cc3ncccc23)O1 [Compound 2.76]"
tgt = "Ba/F3-Syk cells (Homo sapiens, UniProt P43405)"
reported_value = 1.65

[[record]]
molecule = "Cn1cc(-c2cc3ncccc3c(OC[C@@H]3CNCCO3)n2)cn1 [Compound 2.3]"
tgt = "Ba/F3-Syk cells (Homo sapiens, UniProt P43405)"
reported_value = 2.02

[[record]]
molecule = "Cn1ccc(-c2cc3ncccc3c(OCC3CNCCCO3)n2)c1 (stereo not drawn) [Compound 2.48]"
tgt = "Ba/F3-Syk cells (Homo sapiens, UniProt P43405)"
reported_value = 2.08

[[record]]
molecule = "Cn1cc(-c2cc(OC[C@@H]3CNCC4(CC4)O3)c3nccnc3c2)cn1 [Compound 12.1]"
tgt = "Ba/F3-Syk cells (Homo sapiens, UniProt P43405)"
reported_value = 2.33

[[record]]
molecule = "CC[C@H]1CNC[C@@H](COc2nc(-c3cnn(C(C)(C)C)c3)cc3ncccc23)O1 [Compound 2.92]"
tgt = "Ba/F3-Syk cells (Homo sapiens, UniProt P43405)"
reported_value = 1.46

[[record]]
molecule = "CC(C)(C)n1cc(-c2cc3ncccc3c(OC[C@H]3OC[C@@H]4C[C@H]3N4)n2)cn1 (relative stereo) [Compound 2.97]"
tgt = "Ba/F3-Syk cells (Homo sapiens, UniProt P43405)"
reported_value = 2.54

[[record]]
molecule = "CC1(C)CNC[C@@H](COc2nc(-c3ccn(C4CCC4)c3)cc3ncccc23)O1 [Compound 6.14]"
tgt = "Ba/F3-Syk cells (Homo sapiens, UniProt P43405)"
reported_value = 1.16

